# assay target: T1, human IL-12 (human, UniProt P29459 23-219; P29460 23-328)
# T1 construct: also called human IL-12 p70 heterodimer; IL-12 p75
# T1 sequence (looked up) 1: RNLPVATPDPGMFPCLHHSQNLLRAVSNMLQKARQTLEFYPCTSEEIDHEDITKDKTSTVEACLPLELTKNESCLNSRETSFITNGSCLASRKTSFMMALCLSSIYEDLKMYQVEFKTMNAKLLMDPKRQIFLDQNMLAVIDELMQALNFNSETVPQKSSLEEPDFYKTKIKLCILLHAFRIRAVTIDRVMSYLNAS
# T1 sequence (looked up) 2: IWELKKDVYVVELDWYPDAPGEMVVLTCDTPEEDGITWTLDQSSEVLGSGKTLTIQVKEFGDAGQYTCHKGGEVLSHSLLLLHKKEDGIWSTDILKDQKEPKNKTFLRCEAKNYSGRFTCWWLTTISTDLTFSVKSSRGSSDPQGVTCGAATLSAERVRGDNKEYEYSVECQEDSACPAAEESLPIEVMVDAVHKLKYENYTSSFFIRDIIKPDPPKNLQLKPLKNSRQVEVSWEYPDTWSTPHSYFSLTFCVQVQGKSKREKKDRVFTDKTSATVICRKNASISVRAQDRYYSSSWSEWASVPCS
# measurement description: competition ELISA on coated human IL-12; competitor of biotinylated ChDD2
observation type: IC50 (µg/mL)
Write the value in µg/mL as a bare number.

Prompt: Suppose we examine the binder HuDD2 Vλ S69N mutant (antibody, IgG1, V domains shown, IgG1/λ as HuDD2; Kabat numbering) VH: EVQLVESGGGLVQPGGSLRLSCAASGFDFSNYQLQWVRQAPGKGLEWVGGIGSSGSSTYYGAAVKGRATISRDNAKNSVYLQMNSLRAEDTAVYYCTRGVSPYSCWYAGRTSYTCHAYTAGSIDAWGQGTLVTVSS VL: SSELTQDPAVSVALGQTVRITCPGGGIYAGRYYGYGWFQQKPGQAPVTVIYSNDKRPSDIPSRFSGSASGNTASLTITGAQAEDEADYYCGSHDSNVGVFGGGTKLTVL ; what IC50 value has been reported?
Completion: 4.3
